# Target Entity: Histone-lysine N-methyltransferase EHMT2 (Homo sapiens) (UniProt Q96KQ7)
# Sequence (Q96KQ7 913-1193 limits assumed): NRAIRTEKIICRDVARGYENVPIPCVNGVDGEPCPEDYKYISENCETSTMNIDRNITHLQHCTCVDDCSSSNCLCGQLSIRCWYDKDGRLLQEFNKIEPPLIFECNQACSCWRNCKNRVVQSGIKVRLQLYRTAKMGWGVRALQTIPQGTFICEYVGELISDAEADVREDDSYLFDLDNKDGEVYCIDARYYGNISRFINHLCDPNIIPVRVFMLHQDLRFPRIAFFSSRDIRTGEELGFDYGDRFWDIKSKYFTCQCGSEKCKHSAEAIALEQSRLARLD
# Method: qHTS Assay for Inhibitors of Histone Lysine Methyltransferase G9a; further: nearly all actives have a fitted effect of over 75% in size; on activity, negative = inhibition: on the % scale 0 is the no-effect control and ±100 the full control effect
# Measurement Context: G9a H3K9 monomethylation, AlphaScreen, 2 h; series mostly up to 59 µM
In all, about 350,000 compounds went through this assay and about 31,000 (8.9%) were called active. Roughly 15% stayed inconclusive and do not appear here. Many of the other results were omitted from the sample, so actives are more common in it than they were.
Answer each item with its documented activity, negative = inhibition.

IN: Which value of activity, negative = inhibition has been reported for "COc1ccccc1CCNC(=O)CN1C(=O)NC2(CCCC2)C1=O" in the records?
OUT: 8.45% [at 0.501 µM] (inactive)

IN: Which value of activity, negative = inhibition has been reported for "COc1cc(/C=C2\SC(=O)NC2=O)ccc1OCc1ccc(Cl)nc1" in the records?
OUT: 21.1% [at 2.33 µM] (inactive)

IN: Which value of activity, negative = inhibition has been reported for "O=S(=O)(Nc1cc(Cl)ccc1N1CCOCC1)c1ccccc1Cl" in the records?
OUT: 13.1% [at 2.33 µM] (inactive)

IN: Which value of activity, negative = inhibition has been reported for "O=C(Nc1ncccc1O)c1ccc(S(=O)(=O)N2CCCC2)cc1" in the records?
OUT: 6.98% [at 12.7 µM] (inactive)

----------
# Target Entity: Histone-lysine N-methyltransferase EHMT2 (Homo sapiens)
# Method: qHTS Assay for Inhibitors of Histone Lysine Methyltransferase G9a; further: nearly all actives have a fitted effect of over 75% in size; further: potency means the concentration at half of the fitted maximal effect
# Measurement Context: G9a H3K9 monomethylation, AlphaScreen, 2 h; series mostly up to 59 µM
In all, about 350,000 compounds went through this assay and about 31,000 (8.9%) were called active. Roughly 15% stayed inconclusive and do not appear here. The sample as a whole holds a higher share of actives than the screen did.
Measured Quantity: Potency

IN: Which value of Potency has been reported for "C=CCn1c(CSc2nc3ccccc3s2)nnc1SCC(=O)NCc1ccco1" in the records?
OUT: 44.7 µM (active)

IN: Which value of Potency has been reported for "O=[N+]([O-])c1c(NCCO)cc(Sc2nc3ccccc3s2)c2nonc12" in the records?
OUT: 3.55 µM (active)

----------
# Target Entity: Histone-lysine N-methyltransferase EHMT2 (Homo sapiens)
# Method: qHTS Assay for Inhibitors of Histone Lysine Methyltransferase G9a; further: nearly all actives have a fitted effect of over 75% in size; on activity, negative = inhibition: on the % scale 0 is the no-effect control and ±100 the full control effect
# Measurement Context: G9a H3K9 monomethylation, AlphaScreen, 2 h; series mostly up to 59 µM
Out of some 350,000 compounds screened, about 31,000 (8.9%) were called active. Inconclusive results (about 15%) are left out. This is one part of a sample in which actives are shown more often than they occur.
Answer each item with its documented activity, negative = inhibition.

IN: Which value of activity, negative = inhibition has been reported for "O=C(Nc1ccon1)c1nc[nH]c1C(=O)NCc1ccccc1" in the records?
OUT: 4.11% [at 0.501 µM] (inactive)

IN: Which value of activity, negative = inhibition has been reported for CCC(C)N(C(=O)COC(=O)c1nc(Cl)ccc1Cl)C1CCS(=O)(=O)C1 (stereo unspecified) in the records?
OUT: -0.744% [at 0.501 µM] (inactive)

IN: Which value of activity, negative = inhibition has been reported for "O=C(c1ccc(Cl)s1)N(Cc1nnc(-c2ccccc2Cl)o1)C1CC1" in the records?
OUT: 9.15% [at 12.7 µM] (inactive)

IN: Which value of activity, negative = inhibition has been reported for Cc1ccc(C(=O)CN2C(=O)NC3(CCOc4ccccc43)C2=O)s1 (stereo unspecified) in the records?
OUT: -5.02% [at 2.33 µM] (inactive)

IN: Which value of activity, negative = inhibition has been reported for "C=CCOc1cccc(CNn2cn[nH]c2=S)c1" in the records?
OUT: 24.4% [at 0.0925 µM] (inactive)

IN: Which value of activity, negative = inhibition has been reported for C/C=C(/C)C(=O)OC1Cc2c(ccc3ccc(=O)oc23)OC1(C)C (stereo unspecified) in the records?
OUT: 25.6% [at 12.7 µM] (inactive)

IN: Which value of activity, negative = inhibition has been reported for "CCN(CC)S(=O)(=O)c1cc(C(=O)Nc2ccccn2)ccc1C" in the records?
OUT: -27.2% [at 12.7 µM] (inactive)

IN: Which value of activity, negative = inhibition has been reported for O=C(C1CCCO1)N1CCC(c2nc3ccccc3[nH]2)CC1 (stereo unspecified) in the records?
OUT: -28.9% [at 12.7 µM] (inactive)

IN: Which value of activity, negative = inhibition has been reported for "CCc1ccccc1NC(=O)CSc1nnc([C@@H](NC(=O)OC(C)(C)C)C(C)C)o1" in the records?
OUT: 10.1% [at 2.33 µM] (inactive)

IN: Which value of activity, negative = inhibition has been reported for "O=C(CCNS(=O)(=O)c1ccccc1C(F)(F)F)Nc1ccncc1" in the records?
OUT: -8.2% [at 12.7 µM] (inactive)

IN: Which value of activity, negative = inhibition has been reported for O=C(OCC(=O)N1CCc2ccccc21)C1CCCN1S(=O)(=O)c1ccc(Cl)cc1 (stereo unspecified) in the records?
OUT: 0.8% [at 2.33 µM] (inactive)
